- assay-name: Single-dose oral toxicokinetic study of prodrugs in rats
- Format: in vivo, rat
- recorded-conditions: male, CD, rat, plasma, oral, 200 mg/kg; read-out: C24 h
recorded-endpoint: concentration at 24 h (µM)
Number in µM, nothing else.

Quickly give me recorded concentration at 24 h for COc1cnc(-n2cnc(C)n2)c2[nH]cc(C(=O)C(=O)N3CCN(C(=O)c4ccccc4)CC3)c12 [IVc]
58

* * *

What Cmax was measured for each of the following?
- assay-name: Single-dose oral toxicokinetic study of prodrugs in rats
- Format: in vivo, rat
- recorded-conditions: male, Sprague Dawley, rat, plasma, po, 19 mg/kg
- Procedure: A 1-day oral toxicokinetic study in rats was conducted using the prodrug Iab (monolysine salt). Iab was administered at dosages of 16, 72, and 267 mg/kg (free acid) by oral gavage to three male rats/group using water as the vehicle (solution formulation). The dosages of prodrug free acid correspond to IVa (parent) molar equivalent dosages of 13, 57, and 211 mg/kg, respectively. The endpoint evaluated was plasma toxicokinetics of Iab and IVa in the individual rats. […]
Number in µM, nothing else.

Quickly give me recorded Cmax for O=C(C(=O)N1CCN(C(=O)c2ccccc2)CC1)c1cn(COP(=O)(O)O)c2c(-n3ccnn3)ncc(F)c12
0.027

Quickly give me recorded Cmax for O=C(C(=O)N1CCN(C(=O)c2ccccc2)CC1)c1c[nH]c2c(-n3ccnn3)ncc(F)c12
58
